Hello, the source for this data is patent US4945162A, in case you need it.

For reference, Ki measured on Dopamine Receptors (Rat Striatal Membranes) (Rattus norvegicus, UniProt P61169):
Supply the numeric figure in nM, leaving out any unit text.

Determine from records and report Ki for CCCN1CN(c2ccccc2)C2(CCN(CCCC(=O)c3ccc(F)cc3I)CC2)C1=O
0.2

Determine from records and report Ki for CN1CN(c2ccccc2)C2(CCN(CCCC(=O)c3ccc(F)cc3I)CC2)C1=O
5

Determine from records and report Ki for O=C(CCCN1CCC2(CC1)C(=O)NCN2c1ccccc1)c1ccc(F)cc1I
1
